Recorded melting point for the following molecules

{"MOLECULE": "O=S(=O)(Cl)Cc1c(F)cccc1F", "REPORTED VALUE": "73 to 75 °C"}
{"MOLECULE": "O=c1[nH]c2ccccc2nc1NO", "REPORTED VALUE": "258 to 260 °C"}
{"MOLECULE": "COCCS(=O)(=O)c1ccc(C(=O)O)cc1", "REPORTED VALUE": "160 to 162 °C"}
{"MOLECULE": "Cc1ccc(C(=O)O)cc1S(=O)(=O)NC1CCCC1", "REPORTED VALUE": "185 to 187 °C"}
{"MOLECULE": "Cc1ccc(N)cc1C(=O)N(C)C", "REPORTED VALUE": "114 to 116 °C"}

-- ask Name the recorded melting point for O=C(CC1CCCC1)N1CCNCC1 .
-- reply 37 to 39 °C

-- ask Name the recorded melting point for NC(=S)C1CCOC1 (stereo unspecified) .
-- reply 102 to 104 °C

-- ask Name the recorded melting point for NCc1ccc(NC(=O)CN2CCc3ccccc32)cc1 .
-- reply 126 to 128 °C

-- ask Name the recorded melting point for COC(=O)c1cc2ccc(Cl)cc2[nH]1 .
-- reply 181 to 183 °C

-- ask Name the recorded melting point for Fc1ccc(CCNC2=NCCS2)cc1 .
-- reply 106 to 108 °C

-- ask Name the recorded melting point for OC1CCCCC1c1ccc(F)cc1 (stereo unspecified) .
-- reply 71 to 73 °C

-- ask Name the recorded melting point for NC(=O)c1ccccc1I .
-- reply 183 to 185 °C

-- ask Name the recorded melting point for CC(=O)c1cccc(N(S(C)(=O)=O)S(C)(=O)=O)c1 .
-- reply 185 to 187 °C

-- ask Name the recorded melting point for CNC(=O)c1cc(OC)c(OC)cc1N .
-- reply 129 to 131 °C

-- ask Name the recorded melting point for CCC(CO)NC(=O)Cc1ccc(N)cc1 (stereo unspecified) .
-- reply 107 to 109 °C

-- ask Name the recorded melting point for O=C1NCCN2CCCC12 (stereo unspecified) .
-- reply 73 to 75 °C

-- ask Name the recorded melting point for CC(=O)c1ccc(S(=O)(=O)CC(=O)O)cc1F .
-- reply 149 to 151 °C

-- ask Name the recorded melting point for O=C(O)c1occc1CN1CCOCC1 .
-- reply 184 to 186 °C

-- ask Name the recorded melting point for Cc1cc(N)c(N)cc1C .
-- reply 127 to 129 °C

-- ask Name the recorded melting point for CCC1(C)NC(=O)N(CC(=O)O)C1=O (stereo unspecified) .
-- reply 156 to 158 °C

-- ask Name the recorded melting point for Nc1nnc(-c2cccnc2)[nH]1 .
-- reply 207 to 209 °C

-- ask Name the recorded melting point for CC(=O)N1CCc2cc(C(=O)C(C)Cl)ccc21 (stereo unspecified) .
-- reply 129 to 131 °C

-- ask Name the recorded melting point for O=C1c2ccc([N+](=O)[O-])cc2C(=O)N1c1ccc(F)cc1 .
-- reply 207 to 209 °C

-- ask Name the recorded melting point for NS(=O)(=O)c1c[nH]cn1 .
-- reply 232 to 234 °C

-- ask Name the recorded melting point for Cc1cc(S(=O)(=O)Cl)cc(C(=O)O)c1Cl .
-- reply 169 to 171 °C

-- ask Name the recorded melting point for COc1ccc(Nc2nnc(S)s2)cc1 .
-- reply 184 to 186 °C

Just for reference, a melting point compilation (Tetko et al.) is where these values come from.
